Origin of the recorded values: ChEMBL document CHEMBL5032500

Below, each entry is listed with its recorded inhibition.
Target: Adenosine receptor A3 (Homo sapiens) (UniProt P0DMS8)
Sequence (whole entry): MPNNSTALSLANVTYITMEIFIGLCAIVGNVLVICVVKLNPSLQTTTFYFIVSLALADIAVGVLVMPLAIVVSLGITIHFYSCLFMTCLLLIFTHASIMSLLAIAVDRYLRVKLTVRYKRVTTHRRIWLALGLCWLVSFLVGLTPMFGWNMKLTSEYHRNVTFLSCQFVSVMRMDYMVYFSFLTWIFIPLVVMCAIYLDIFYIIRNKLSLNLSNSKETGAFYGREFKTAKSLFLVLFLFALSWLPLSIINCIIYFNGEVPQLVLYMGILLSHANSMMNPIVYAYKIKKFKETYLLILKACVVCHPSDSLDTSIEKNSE
Assay: Displacement of [3H]PSB-11 from human recombinant adenosine A3 receptor expressed in CHO cells at 1 uM by liquid scintillation counting analysis
Format: cell-based
Lab book: enter the figure in %, no units written.

>>> df
                            structuresmiles                             assayedsystem  readoutname  unitofmeasure  reading
0  Nc1nc(-c2ccc(OCCCN3CCCCC3)cc2)c2c(n1)-c1ccccc1C2=O  Adenosine receptor A3 (Homo sapiens) (UniProt P0DMS8)   inhibition              %       33
1  Nc1nc(-c2ccc(OCCCN3CCCCC3)cc2)c2c(n1)-c1ccccc1C2  Adenosine receptor A3 (Homo sapiens) (UniProt P0DMS8)   inhibition              %       24
2  Nc1nc(-c2ccc(OCCCN3CCCCC3)cc2)c2c(n1)-c1ccc(OCCCN3CCCCC3)cc1C2=O  Adenosine receptor A3 (Homo sapiens) (UniProt P0DMS8)   inhibition              %       32
3  Nc1nc(-c2ccccc2)c2c(n1)-c1ccc(OCCCN3CCCCC3)cc1C2=O  Adenosine receptor A3 (Homo sapiens) (UniProt P0DMS8)   inhibition              %       12
4          O=C(c1ccc(OCCCN2CCCCC2)cc1)C1CC1  Adenosine receptor A3 (Homo sapiens) (UniProt P0DMS8)   inhibition              %       -2
5  Nc1nc(-c2ccccc2)c2c(n1)-c1ccc(OCCCN3CCCC3)cc1C2  Adenosine receptor A3 (Homo sapiens) (UniProt P0DMS8)   inhibition              %       35
6  Nc1nc(-c2ccccc2)c2c(n1)-c1ccc(OCCCN3CCCCC3)cc1C2  Adenosine receptor A3 (Homo sapiens) (UniProt P0DMS8)   inhibition              %       39

Attention now shifts to the item below.
### Prompt So what inhibition did O=C(c1ccc(OCCCc2c[nH]cn2)cc1)C1CC1 get with Adenosine receptor A3 (Homo sapiens) (UniProt P0DMS8)?
### Response 3
